Entry source: patent US20250236611A1

Below, each entry is listed alongside its reported IC50.
- TGT: JAK2 (Homo sapiens)
- Sequence (O60674 whole entry): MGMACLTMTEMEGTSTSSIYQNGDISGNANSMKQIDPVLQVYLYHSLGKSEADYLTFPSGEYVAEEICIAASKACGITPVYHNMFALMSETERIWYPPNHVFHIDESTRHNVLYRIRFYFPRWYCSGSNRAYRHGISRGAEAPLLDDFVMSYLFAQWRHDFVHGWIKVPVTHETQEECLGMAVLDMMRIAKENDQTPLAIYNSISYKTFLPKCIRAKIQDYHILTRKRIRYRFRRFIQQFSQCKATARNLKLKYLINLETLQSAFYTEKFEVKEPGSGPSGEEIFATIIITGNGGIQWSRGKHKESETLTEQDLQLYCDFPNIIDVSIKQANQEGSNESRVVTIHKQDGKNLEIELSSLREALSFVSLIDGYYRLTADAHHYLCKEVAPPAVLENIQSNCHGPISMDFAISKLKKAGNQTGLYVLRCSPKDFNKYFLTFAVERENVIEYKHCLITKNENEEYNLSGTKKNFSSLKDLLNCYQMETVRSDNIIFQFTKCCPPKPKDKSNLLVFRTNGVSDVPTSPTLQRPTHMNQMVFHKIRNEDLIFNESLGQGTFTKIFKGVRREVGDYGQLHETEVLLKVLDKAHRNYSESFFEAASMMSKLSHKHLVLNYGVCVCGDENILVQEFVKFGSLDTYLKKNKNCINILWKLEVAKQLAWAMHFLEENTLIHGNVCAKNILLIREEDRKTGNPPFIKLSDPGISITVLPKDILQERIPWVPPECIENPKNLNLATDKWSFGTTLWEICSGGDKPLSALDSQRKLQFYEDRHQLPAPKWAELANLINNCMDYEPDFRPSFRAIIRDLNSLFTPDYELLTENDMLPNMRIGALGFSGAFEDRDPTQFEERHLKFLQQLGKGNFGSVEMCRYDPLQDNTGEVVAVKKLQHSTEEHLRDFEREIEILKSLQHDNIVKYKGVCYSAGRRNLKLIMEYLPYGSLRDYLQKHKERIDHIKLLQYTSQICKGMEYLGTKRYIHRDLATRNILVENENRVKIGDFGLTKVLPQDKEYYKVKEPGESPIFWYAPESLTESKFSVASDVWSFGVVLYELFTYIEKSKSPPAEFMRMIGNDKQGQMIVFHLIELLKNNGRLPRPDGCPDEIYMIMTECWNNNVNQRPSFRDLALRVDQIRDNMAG
- ASSAY_SUMMARY: JAK assay (KINASE-GLO luminescent kinase assay), JAK2
- Type: biochemical
- MEASUREMENT_SETUP: 10 nM JAK enzyme, 800 nM Abl peptide, room temperature 75 min

A selection of reference data follows.
COC(=O)c1ccc(Nc2ncc(Cl)c(-c3cnn(CC4(C#N)CC4)c3)n2)cn1 = < 10 nM
CNCc1cc(Nc2ncc(C)c(-c3cnn(CC4(CF)CC4)c3)n2)sn1 = < 10 nM

Could you now consider this next compound?
Quickly give me recorded IC50 for Cc1cnc(Nc2cccc3c2CN(C)C3)nc1-c1cnn(CC2(Cl)CC2)c1 < 1000 nM
